assay: surface tension by Du Noüy ring method, Krüss K20 EasyDyne tensiometer; type: physicochemical; conditions: 100 % w/w solvent, room temperature
Exam item: assign Satisfied to entries whose Surface tension is below 30 dynes/cm and Not satisfied to entries at or above 30 dynes/cm. Note that a value of exactly 30 dynes/cm receives Not satisfied.

// query Identify whether the compound CCOCCOCCO [Ethoxy Diglycol NF, ethoxydiglycol] records Surface tension below 30 dynes/cm.
// result Not satisfied

* * *

test: surface tension by Du Noüy ring method, Krüss K20 EasyDyne tensiometer; format: physicochemical; conditions: 1.0 % w/w solvent in water, room temperature
# Surface tension annotations
Form entry: value (dynes/cm) — number only.

>>> recorded_number("OCCCO")
69.8
>>> recorded_number("CC(O)CO (stereo not shown)")
70.8
>>> recorded_number("CCOCCOCCO")
66.2
>>> recorded_number("CO[C@H]1CO[C@H]2[C@@H]1OC[C@H]2OC [Dimethyl Isosorbide, dimethyl isosorbide]")
66.0
>>> recorded_number("CCO")
67.4
>>> recorded_number("CC(C)O")
62.1

// field: Surface tension; key: CC1COC(=O)O1 (stereo not shown) [Propylene Carbonate, propylene carbonate] ; value = 68.5

* * *

assay: surface tension by Du Noüy ring method, Krüss K20 EasyDyne tensiometer; format: physicochemical; details: 20 % w/w solvent in water, room temperature
readout.kind: Surface tension (dynes/cm)
Form entry: value (dynes/cm) — number only.

>>> recorded_number("CO[C@H]1CO[C@H]2[C@@H]1OC[C@H]2OC [Dimethyl Isosorbide, dimethyl isosorbide]")
38.6
>>> recorded_number("OCCCO [1,3-Propanediol, 1,3-propanediol]")
60.4
>>> recorded_number("CCOCCOCCO [Ethoxy Diglycol NF, ethoxydiglycol]")
43.2
>>> recorded_number("CC(O)CO (stereo not drawn) [Propylene Glycol USP, propylene glycol]")
55.2

// field: Surface tension; key: CCO [Ethanol (200 proof), ethanol] ; value = 38.0

// field: Surface tension; key: CC(C)O [Isopropyl Alcohol, isopropyl alcohol] ; value = 29.5

* * *

assay: surface tension by Du Noüy ring method, Krüss K20 EasyDyne tensiometer; type: physicochemical; details: 10 % w/w solvent in water, room temperature
# Surface tension annotations
Form entry: value (dynes/cm) — number only.

Solved cases (2 shown):
>>> recorded_number("CC(O)CO (stereo not shown) [Propylene Glycol USP, propylene glycol]")
61.7
>>> recorded_number("CCOCCOCCO [Ethoxy Diglycol NF, ethoxydiglycol]")
53.1

// field: Surface tension; key: OCCCO [1,3-Propanediol, 1,3-propanediol] ; value = 61.2

// field: Surface tension; key: CC(C)O [Isopropyl Alcohol, isopropyl alcohol] ; value = 38.6

// field: Surface tension; key: CCO [Ethanol (200 proof), ethanol] ; value = 47.8

// field: Surface tension; key: CC1COC(=O)O1 (stereo not shown) [Propylene Carbonate, propylene carbonate] ; value = 45.9

// field: Surface tension; key: CO[C@H]1CO[C@H]2[C@@H]1OC[C@H]2OC [Dimethyl Isosorbide, dimethyl isosorbide] ; value = 47.9

* * *

assay: surface tension by Du Noüy ring method, Krüss K20 EasyDyne tensiometer; format: physicochemical; details: 2.5 % w/w solvent in water, room temperature
readout.kind: Surface tension
Report the figure along with its unit, number first.

>>> result("CC(O)CO (stereo not drawn) [Propylene Glycol USP, propylene glycol]")
"68.7 dynes/cm"
>>> result("CC1COC(=O)O1 (stereo not drawn) [Propylene Carbonate, propylene carbonate]")
"63.8 dynes/cm"
>>> result("CO[C@H]1CO[C@H]2[C@@H]1OC[C@H]2OC [Dimethyl Isosorbide, dimethyl isosorbide]")
"61.7 dynes/cm"
>>> result("OCCCO [1,3-Propanediol, 1,3-propanediol]")
"68.1 dynes/cm"
>>> result("CCO [Ethanol (200 proof), ethanol]")
"62.0 dynes/cm"

// field: Surface tension; key: CCOCCOCCO [Ethoxy Diglycol NF, ethoxydiglycol] ; value = 62.5 dynes/cm
